Cited source for all entries: ChEMBL document CHEMBL1131176

- targetDesc: Beta-lactamase (Escherichia coli K-12, UniProt P00811)
- Sequence (P00811 whole entry): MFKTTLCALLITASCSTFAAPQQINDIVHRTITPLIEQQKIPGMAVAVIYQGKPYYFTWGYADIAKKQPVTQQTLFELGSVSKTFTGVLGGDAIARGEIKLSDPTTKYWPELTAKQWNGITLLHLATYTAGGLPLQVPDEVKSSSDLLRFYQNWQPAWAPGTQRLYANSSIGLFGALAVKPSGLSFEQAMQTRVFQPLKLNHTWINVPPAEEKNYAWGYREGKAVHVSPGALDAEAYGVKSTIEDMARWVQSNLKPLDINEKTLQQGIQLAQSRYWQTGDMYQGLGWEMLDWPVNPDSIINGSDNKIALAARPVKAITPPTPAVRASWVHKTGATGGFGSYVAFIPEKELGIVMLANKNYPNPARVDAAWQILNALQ
- testDetails: Compound was tested for its specificity against AmpC beta-lactamase
The molecules listed here are annotated with their IC50.
Give your result in µM as a bare value.

- OB(O)c1cc2ccccc2o1: 0.6

Task: What value of IC50 has been recorded for this entry: OB(O)c1ccc(Cl)s1
Result: 2

Task: What value of IC50 has been recorded for this entry: OB(O)c1cccc(C(F)(F)F)c1
Result: 5

Task: What value of IC50 has been recorded for this entry: OB(O)[C@@H]1CCOC1
Result: 5

Task: What value of IC50 has been recorded for this entry: CN(C)c1cccc2c(S(=O)(=O)Nc3cccc(B(O)O)c3)cccc12 [M(DANSYLAMIDOPHENYL)BORONIC ACID]
Result: 5

###

The compounds listed here are annotated with their pIC50.
- targetDesc: Chymotrypsinogen A (Bos taurus)
pIC50: −log10 of the molar value.

- OB(O)c1cccs1: < 3.70

Task: What value of pIC50 has been recorded for this entry: OB(O)[C@@H]1CCOC1
Result: < 3.70

Task: What value of pIC50 has been recorded for this entry: OB(O)c1ccc(Cl)s1
Result: < 4.00

###

- targetDesc: Beta-lactamase (Escherichia coli K-12)
- testDetails: Inhibitory activity against Escherichia coli AmpC beta-lactamase.
measuredEndpoint: Ki (µM)
Give your result in µM as a bare value.

• OB(O)c1ccsc1 = 22.1

Task: Please provide the recorded Ki for CC(=O)c1ccc(B(O)O)s1 , tested on Beta-lactamase (Escherichia coli K-12).
Result: 1.6

Task: Please provide the recorded Ki for OB(O)c1ccc(-c2ccc(B(O)O)cc2)cc1 , tested on Beta-lactamase (Escherichia coli K-12).
Result: 0.2

###

- targetDesc: Beta-lactamase (Escherichia coli K-12, UniProt P00811)
- testDetails: Inhibitory activity against Escherichia coli AmpC beta-lactamase.
measuredEndpoint: pKi
By convention, pKi is the negative base-10 log of a molar concentration.

Would you please look over these solved cases?
* Cc1ccc(B(O)O)cc1 [TOLYL BORONIC ACID] | 5.27
* OB(O)c1cccc2ccccc12 | 4.92
* OB(O)c1ccc(Cl)s1 | 6.39
* OB(O)c1ccc(Br)cc1 | 5.44
* OB(O)c1cc2ccccc2c2ccccc12 | 5.15

Task: What value of pKi has been recorded for this entry: COc1ccc(B(O)O)cc1
Result: 5.23

Task: What value of pKi has been recorded for this entry: OB(O)c1ccc(C(F)(F)F)cc1
Result: 5.52

Task: What value of pKi has been recorded for this entry: OB(O)c1ccc(F)cc1
Result: 5.19

###

- targetDesc: Beta-lactamase (Escherichia coli K-12, UniProt P00811)
- testDetails: Inhibitory activity against Escherichia coli AmpC beta-lactamase.
measuredEndpoint: Ki (µM)
Give your result in µM as a bare value.

• O=Cc1ccccc1B(O)O = 25.3
• CN(C)c1cccc2c(S(=O)(=O)Nc3cccc(B(O)O)c3)cccc12 = 1.3
• O=Cc1ccsc1B(O)O = 3.8

Task: Please provide the recorded Ki for OB(O)c1cccc(C(F)(F)F)c1 , tested on Beta-lactamase (Escherichia coli K-12, UniProt P00811).
Result: 1.1

Task: Please provide the recorded Ki for OB(O)c1ccccc1 , tested on Beta-lactamase (Escherichia coli K-12, UniProt P00811).
Result: 10.5

Task: Please provide the recorded Ki for OB(O)c1cc2ccccc2o1 , tested on Beta-lactamase (Escherichia coli K-12, UniProt P00811).
Result: 0.22

Task: Please provide the recorded Ki for O=Cc1ccc(B(O)O)cc1 , tested on Beta-lactamase (Escherichia coli K-12, UniProt P00811).
Result: 2.9

Task: Please provide the recorded Ki for OB(O)c1ccc(B(O)O)cc1 , tested on Beta-lactamase (Escherichia coli K-12, UniProt P00811).
Result: 3.9
